biological target: Phosphatidylinositol 4,5-bisphosphate 3-kinase catalytic subunit alpha isoform (Homo sapiens); assay: Binding affinity to human PI3Kalpha equilibrate for 1 hr by scan-kinetic platform assay
readout: Kd

So, CO/C=C/C(=O)c1cc2c3c(c(N)cc(NC(=O)C(C)C)c3n1)N=C2 ? Its Kd was 0.65 to 0.68 nM

* * *

test: Inhibition of PI3K in human HeLa cells assessed as reduction in EGF-stimulated AKT phosphorylation at S473 preincubated for 10 mins followed by EGF stimulation measured after 5 mins by Western blot analysis; assay type: cell-based
readout: IC50 (nM)
Numbers only here, please. The scale is nM.

So, CO/C=C/C(=O)c1cc2c3c(c(N)cc(NC(=O)C(C)C)c3n1)N=C2 ? Its IC50 was 3

* * *

target: Phosphatidylinositol 4,5-bisphosphate 3-kinase catalytic subunit alpha isoform (Homo sapiens, UniProt P42336); experiment: Binding affinity to human PI3Kalpha equilibrate for 1 hr followed by 30 fold dilution and re-equilibrate for 5 hrs by scan-kinetic platform assay
Sequence (P42336 whole entry, canonical isoform): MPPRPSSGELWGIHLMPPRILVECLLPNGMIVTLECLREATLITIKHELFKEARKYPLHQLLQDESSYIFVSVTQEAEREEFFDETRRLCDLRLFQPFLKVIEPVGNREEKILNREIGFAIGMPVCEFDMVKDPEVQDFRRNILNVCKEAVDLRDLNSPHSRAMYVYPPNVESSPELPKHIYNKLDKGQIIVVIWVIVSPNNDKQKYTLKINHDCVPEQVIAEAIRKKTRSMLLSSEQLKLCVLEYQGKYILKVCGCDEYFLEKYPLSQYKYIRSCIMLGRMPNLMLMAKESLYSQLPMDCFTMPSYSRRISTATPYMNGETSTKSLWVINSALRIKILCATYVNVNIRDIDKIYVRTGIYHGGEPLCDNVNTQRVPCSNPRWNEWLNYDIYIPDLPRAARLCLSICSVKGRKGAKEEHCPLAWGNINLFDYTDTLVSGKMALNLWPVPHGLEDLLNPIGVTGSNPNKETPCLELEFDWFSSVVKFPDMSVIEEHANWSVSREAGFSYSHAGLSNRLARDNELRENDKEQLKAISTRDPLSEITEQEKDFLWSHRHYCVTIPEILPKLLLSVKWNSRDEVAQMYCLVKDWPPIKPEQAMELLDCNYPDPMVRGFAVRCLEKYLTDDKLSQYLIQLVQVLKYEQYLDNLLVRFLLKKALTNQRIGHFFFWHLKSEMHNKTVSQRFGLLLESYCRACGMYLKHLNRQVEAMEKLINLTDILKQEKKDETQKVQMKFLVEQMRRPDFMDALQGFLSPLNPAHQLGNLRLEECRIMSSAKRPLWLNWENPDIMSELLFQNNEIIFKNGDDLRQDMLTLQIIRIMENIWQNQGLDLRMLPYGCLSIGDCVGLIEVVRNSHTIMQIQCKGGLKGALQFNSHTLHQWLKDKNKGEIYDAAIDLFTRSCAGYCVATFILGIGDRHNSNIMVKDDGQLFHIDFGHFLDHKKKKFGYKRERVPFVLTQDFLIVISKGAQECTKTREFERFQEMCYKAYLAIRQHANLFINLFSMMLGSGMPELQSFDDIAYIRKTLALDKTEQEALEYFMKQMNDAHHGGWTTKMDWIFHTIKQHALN
pKd: −log10 of the molar value.
readout: pKd

So, CO/C=C/C(=O)c1cc2c3c(c(N)cc(NC(=O)C(C)C)c3n1)N=C2 ? Its pKd was 9.14 to 9.25

* * *

molecular target: Phosphatidylinositol 4,5-bisphosphate 3-kinase catalytic subunit gamma isoform (Homo sapiens); experiment: Binding affinity to human PI3Kgamma diluted 30 fold and equilibrate for 6 hrs by scan-kinetic platform assay
pKd: −log10 of the molar value.
readout: pKd

So, CO/C=C/C(=O)c1cc2c3c(c(N)cc(NC(=O)C(C)C)c3n1)N=C2 ? Its pKd was 7.00 to 7.10

* * *

target: Phosphatidylinositol 4,5-bisphosphate 3-kinase catalytic subunit gamma isoform (Homo sapiens); assay: Binding affinity to human PI3Kgamma equilibrate for 1 hr by scan-kinetic platform assay
pKd: −log10 of the molar value.
readout: pKd

So, CO/C=C/C(=O)c1cc2c3c(c(N)cc(NC(=O)C(C)C)c3n1)N=C2 ? Its pKd was 8.48 to 8.70

* * *

target: Phosphatidylinositol 4,5-bisphosphate 3-kinase catalytic subunit alpha isoform (Homo sapiens); assay: Binding affinity to human PI3Kalpha diluted 30 fold and equilibrate for 6 hrs by scan-kinetic platform assay
readout: Kd

So, CO/C=C/C(=O)c1cc2c3c(c(N)cc(NC(=O)C(C)C)c3n1)N=C2 ? Its Kd was 18 to 20 nM

* * *

target: Phosphatidylinositol 4,5-bisphosphate 3-kinase catalytic subunit alpha isoform (Homo sapiens, UniProt P42336); experiment: Binding affinity to human PI3Kalpha equilibrate for 6 hrs by scan-kinetic platform assay
pKd: −log10 of the molar value.
readout: pKd

So, CO/C=C/C(=O)c1cc2c3c(c(N)cc(NC(=O)C(C)C)c3n1)N=C2 ? Its pKd was 9.35 to 9.37

* * *

target: Serine/threonine-protein kinase mTOR (Homo sapiens, UniProt P42345)
readout: Kd (nM)
Numbers only here, please. The scale is nM.

So, CO/C=C/C(=O)c1cc2c3c(c(N)cc(NC(=O)C(C)C)c3n1)N=C2 ? Its Kd was 10

* * *

molecular target: Phosphatidylinositol 4,5-bisphosphate 3-kinase catalytic subunit gamma isoform (Homo sapiens, UniProt P48736); test: Binding affinity to human PI3Kgamma equilibrate for 1 hr followed by 30 fold dilution and re-equilibrate for 5 hrs by scan-kinetic platform assay
Sequence (P48736 whole entry, canonical isoform): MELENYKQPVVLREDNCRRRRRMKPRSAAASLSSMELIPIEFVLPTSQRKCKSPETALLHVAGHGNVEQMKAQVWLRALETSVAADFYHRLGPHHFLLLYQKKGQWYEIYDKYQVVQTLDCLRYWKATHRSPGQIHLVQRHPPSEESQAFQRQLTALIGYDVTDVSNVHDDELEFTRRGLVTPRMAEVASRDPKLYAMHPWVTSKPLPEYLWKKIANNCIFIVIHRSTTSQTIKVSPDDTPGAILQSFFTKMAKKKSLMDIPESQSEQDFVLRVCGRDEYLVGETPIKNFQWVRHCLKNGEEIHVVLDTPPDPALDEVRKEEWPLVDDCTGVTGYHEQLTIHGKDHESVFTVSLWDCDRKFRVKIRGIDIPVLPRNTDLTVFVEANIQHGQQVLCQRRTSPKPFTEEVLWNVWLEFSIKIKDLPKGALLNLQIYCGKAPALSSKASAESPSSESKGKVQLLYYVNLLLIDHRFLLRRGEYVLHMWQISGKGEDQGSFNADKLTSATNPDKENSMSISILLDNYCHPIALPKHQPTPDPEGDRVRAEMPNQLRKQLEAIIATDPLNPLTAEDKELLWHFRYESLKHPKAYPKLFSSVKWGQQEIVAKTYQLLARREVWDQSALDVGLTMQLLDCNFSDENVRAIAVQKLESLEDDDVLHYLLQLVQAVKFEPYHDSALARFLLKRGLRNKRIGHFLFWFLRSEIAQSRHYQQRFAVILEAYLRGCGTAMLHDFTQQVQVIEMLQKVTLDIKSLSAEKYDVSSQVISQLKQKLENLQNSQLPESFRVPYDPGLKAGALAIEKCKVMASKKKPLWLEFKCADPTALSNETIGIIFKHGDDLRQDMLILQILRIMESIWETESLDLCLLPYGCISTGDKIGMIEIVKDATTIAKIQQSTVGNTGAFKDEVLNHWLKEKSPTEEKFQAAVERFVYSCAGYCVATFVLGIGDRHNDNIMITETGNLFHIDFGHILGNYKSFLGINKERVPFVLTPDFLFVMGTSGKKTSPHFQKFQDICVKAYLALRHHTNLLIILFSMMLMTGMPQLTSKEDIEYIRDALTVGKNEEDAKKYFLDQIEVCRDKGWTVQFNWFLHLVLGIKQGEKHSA
readout: Kd

So, CO/C=C/C(=O)c1cc2c3c(c(N)cc(NC(=O)C(C)C)c3n1)N=C2 ? Its Kd was 4.4 to 7.3 nM

Sourced from ChEMBL document CHEMBL4266033
